# Tested on: SF-539 CNS
# protocol summary: NCI tumour cell line growth inhibition, 48 h
Collected TGI values appear next to each entry.

{"compound": "Cc1cc(N(CCC#N)CCC#N)ccc1N=Nc1cccc(Cl)c1", "TGI": "> 100 µM"}
{"compound": "COc1ccc2c(c1)cn1c3ccc(O)cc3[nH]c(=O)c21", "TGI": "1.16 µM"}
{"compound": "CCOP(=O)(OCC)[C@]12C[C@@H](C)C=C[C@H]1COC2=O", "TGI": "> 100 µM"}
{"compound": "O=[N+]([O-])/C=C\\c1c[nH]c2ccc(OCc3ccccc3)cc12", "TGI": "22.6 µM"}
{"compound": "COC1C(O)C(C)OC(OC2CC3CCC4C(CCC5(C)C(C6=CC(=O)OC6)CCC45O)C3(O)C(OC(C)=O)C2)C1O (centres undefined)", "TGI": "1.95 µM"}
{"compound": "COC1CC(CC2CCC(C)C(C(C)C(=O)O)O2)OC2(OC(C)(C3CCC(C)(C4OC(C5OC(O)(CO)C(C)CC5C)CC4C)O3)CC2C)C1C (centres undefined)", "TGI": "10.3 µM"}
{"compound": "C=C1CC2(CCCC3(CC(=C)C(=O)O3)C2(C)C)OC1=O (centres undefined)", "TGI": "11.4 µM"}
{"compound": "O=S(=O)(O)c1cc(N=[N+]([O-])c2cc(S(=O)(=O)O)c3ccccc3c2)cc2ccccc12", "TGI": "60.2 µM"}
{"compound": "CC(CN1CCN(CC(C)Nc2ccnc3cc(Cl)ccc23)CC1)Nc1ccnc2cc(Cl)ccc12 (centres undefined)", "TGI": "10.4 µM"}

###

# Tested on: SR leukemia
# protocol summary: NCI tumour cell line growth inhibition, 48 h
Collected TGI values appear next to each entry.

{"molecule": "COc1cc2c(cc1C)NC(=O)/C2=C/c1c(Cl)n(-c2ccccc2)c2ccccc12", "modifier sign": "=", "TGI [µM]": 32.9}
{"molecule": "Nc1cc(-c2ccc(Cl)cc2)nn1-c1nc2ccccc2nc1-c1ccccc1", "modifier sign": ">", "TGI [µM]": 100}
{"molecule": "Nc1ccc2ccc(NS(=O)(=O)N3CCCCC3)cc2c1", "modifier sign": ">", "TGI [µM]": 100}
{"molecule": "CC(=O)Oc1ccc(CO)cc1OC(C)=O", "modifier sign": ">", "TGI [µM]": 100}
{"molecule": "C1=C(c2ccccc2)C(c2ccc(OCCN3CCCCC3)cc2)Oc2ccccc21 (stereo unspecified)", "modifier sign": "=", "TGI [µM]": 3.94}
{"molecule": "C(=C\\c1nccc2c1[nH]c1ccccc12)/c1ccccc1", "modifier sign": "=", "TGI [µM]": 6.84}

###

# Tested on: RXF 393 renal
# protocol summary: NCI tumour cell line growth inhibition, 48 h

{"compound": "O=C(O)C1(Cc2ccc3c(c2)CCC3)Cc2ccccc2C1=O (stereo not given)", "modifier sign": ">", "TGI, µM": 100}
{"compound": "O=S(=O)(O)/C(=C\\c1ccccc1)c1ccccc1 (tested in a mixture with another compound)", "modifier sign": ">", "TGI, µM": 100}
{"compound": "NC(=S)N/N=c1\\cc(C(=O)Nc2ccc([N+](=O)[O-])cc2[N+](=O)[O-])oc2ccccc12", "modifier sign": ">", "TGI, µM": 100}
{"compound": "COC(CN(C=O)[C@@H](c1ccc(Cl)cc1)c1cc2ccccc2o1)OC", "modifier sign": "=", "TGI, µM": 28.4}
{"compound": "Cc1sc(N)c(S(=O)(=O)c2ccccc2)c1C", "modifier sign": ">", "TGI, µM": 100}
{"compound": "COc1ccc(/C=C/C(=O)c2cc3c(N)c(C(=O)Nc4ccccc4C)sc3nc2C)cc1", "modifier sign": "=", "TGI, µM": 0.423}
{"compound": "COc1ccc([C@]23CCN(S(=O)(=O)c4ccc(C)cc4)[C@H]2[C@H](CO)C2(CC3)OCC(C)(C)CO2)cc1OC", "modifier sign": ">", "TGI, µM": 100}
{"compound": "Cn1nc2ccc3nccc(N(CCO)CCO)c3c2n1", "modifier sign": ">", "TGI, µM": 100}
{"compound": "CC(C)(C)OC(=O)CN1CCc2c(sc3ncnc(N/N=C/c4cccc5ccccc45)c23)C1", "modifier sign": "=", "TGI, µM": 6.93}
{"compound": "C(=C\\c1nccc2c1[nH]c1ccccc12)/c1ccccc1", "modifier sign": "=", "TGI, µM": 4.66}

###

# Test system: NCI-H23 lung
# protocol summary: NCI tumour cell line growth inhibition, 48 h; in the data active means GI50 below about 0.43 µM; inactive means the rest
Classes used: true (1) (active), false (0) (inactive)

{"compound": "O=C(NNS(=O)(=O)c1ccc(F)cc1)c1cccnc1Nc1ccc(Cl)cc1Cl", "label": "false (0)"}
{"compound": "C#Cc1cccc(Oc2ccc(NC(=O)CCl)cc2)c1", "label": "false (0)"}
{"compound": "C/C1=C/C(=O)O[C@@H]2C[C@@H](CC[C@H](C)/C=C\\C=C\\CC1)O[C@@](OCCc1ccccc1)([C@@H]1CSC(=O)N1)C2", "label": "true (1)"}
{"compound": "O=C(Nc1ccc(Cl)cc1)c1cc(S(=O)(=O)Nc2nnc(-c3ccccc3)c(-c3ccccc3)n2)c(SCc2ccccc2)cc1Cl", "label": "false (0)"}
{"compound": "O=[N+]([O-])[O-].O=[N+]([O-])[O-].[Au].[Au].c1ccc([P-]c2ccccc2)cc1.c1ccc([P-]c2ccccc2)cc1", "label": "false (0)"}
{"compound": "Cc1ccc(C2C3=C(N=c4s/c(=C/c5ccc(Br)cc5)c(=O)n42)c2ccc4ccccc4c2OCC3)cc1 (configuration not stated)", "label": "false (0)"}
{"compound": "c1cc[c]([Sn]([S]c2cccc3cccnc23)([S]c2cccc3cccnc23)[c]2ccccc2)cc1", "label": "true (1)"}
{"compound": "Cc1nc2cc(Nc3nc(Nc4ccc(F)cc4)nc(N4CCN(C)CC4)n3)ccc2n1Cc1ccccc1", "label": "false (0)"}
{"compound": "O=C1c2ccn(CCCCN3CCCCC3)c2C(=O)c2c1c(O)c1ccccc1c2O", "label": "false (0)"}
{"compound": "O=C(CNc1ncco1)Nc1ccc(S(=O)(=O)c2ccc(NC(=O)CNc3ncco3)cc2)cc1", "label": "false (0)"}
{"compound": "CCCCCCCCCCCCCC(=O)C(C)N (configuration not stated)", "label": "false (0)"}
{"compound": "O=C(Nc1cccc(O)c1)c1cccc(NC2=C(Cl)C(=O)N(Cc3ccccc3)C2=O)c1", "label": "false (0)"}
{"compound": "COc1ccc2c(c1)cn1c3ccc(O)cc3[nH]c(=O)c21", "label": "true (1)"}
{"compound": "CCCCCCC#CC#Cc1cccc(=O)o1", "label": "false (0)"}
{"compound": "COC(=O)C1(C2CC/C(C)=C/CC/C(C)=C/CC[C@@]3(C)O[C@@H]3C2)CC1 (some centres not stated)", "label": "false (0)"}
{"compound": "COc1cc2cc(Oc3ccc(NC(=O)Nc4ccc(Cl)c(C(F)(F)F)c4)cc3)c(C)nc2cc1OC", "label": "false (0)"}
{"compound": "COc1ccc(CC(NC(=O)[C@H](C)NC(=O)CN2CCOCC2)C(=O)N[C@@H](Cc2ccccc2)C(=O)[C@@]2(C)CO2)cc1 (some centres not stated)", "label": "true (1)"}

###

# Tested on: SK-MEL-28 melanoma
# protocol summary: NCI tumour cell line growth inhibition, 48 h
measured quantity: TGI

{"compound": "Cc1cc(=O)[nH]c(/N=C(\\N)Nc2ccc(Cl)cc2)n1", "measured quantity": "TGI", "recorded value": "> 100 µM"}
{"compound": "O=S(=O)(O)/C(=C\\c1ccccc1)c1ccccc1 (tested in a mixture with another compound)", "measured quantity": "TGI", "recorded value": "> 100 µM"}
{"compound": "CC1CCP(=O)(c2ccccc2)CC1 (stereo unspecified)", "measured quantity": "TGI", "recorded value": "> 100 µM"}
{"compound": "Cc1cc(=O)oc2c3c(ccc12)OC(c1ccc(Br)cc1)CC3=O (stereo unspecified)", "measured quantity": "TGI", "recorded value": "21.3 µM"}
{"compound": "Cc1cc(C)c2c(SCc3ccc(Cl)cc3Cl)nc(N)nc2n1", "measured quantity": "TGI", "recorded value": "> 100 µM"}
{"compound": "COc1cc(C)c(C)c(OC(=O)c2c(C)c(C)c(OC)c(C)c2OC)c1C", "measured quantity": "TGI", "recorded value": "> 100 µM"}
{"compound": "CC(=O)c1cc2c(c3ccsc13)-c1ccccc1CC2", "measured quantity": "TGI", "recorded value": "> 100 µM"}
{"compound": "CCOC(=O)C1=COC(C)(c2ccccc2)CC1=O (stereo unspecified)", "measured quantity": "TGI", "recorded value": "> 100 µM"}
{"compound": "CC(=O)/C=C/C1=C(c2cccs2)c2ccccc2CC1", "measured quantity": "TGI", "recorded value": "52.2 µM"}
{"compound": "CCOC(=O)/C(C[C@H]1OC(C)(C)O[C@@H]1[C@H]1COC(C)(C)O1)=N/O", "measured quantity": "TGI", "recorded value": "> 100 µM"}
{"compound": "c1cc(-c2cn[nH]c2)cc(-c2cn[nH]c2)c1", "measured quantity": "TGI", "recorded value": "> 100 µM"}
